Ref: patent US20260315452A1

// each record: one item and its pIC50 for SARS-CoV-2 3CLpro (Severe acute respiratory syndrome coronavirus 2)
pIC50: −log10 of the molar value. Structures can show the parent of a compound that is named as a salt.

Some solved entries appear below for comparison.
molecule: CNC(=O)c1cc(Br)cc([N+](=O)[O-])c1NC(C(C)C)C1CN(C(=O)c2cncc3ccccc23)C1 (stereo in doubt) [Compound 12]
subject-of-test: SARS-CoV-2 3CLpro (Severe acute respiratory syndrome coronavirus 2)
pIC50: > 7.00
//
molecule: CN(C)C1CN(C(=O)c2cc(Cl)cc([N+](=O)[O-])c2N[C@H]2CN(C(=O)c3cncc4ccccc34)CCC2(F)F)C1 [Compound 94, hydrochloride]
subject-of-test: SARS-CoV-2 3CLpro (Severe acute respiratory syndrome coronavirus 2)
pIC50: > 7.00

Query: If you can, please state the reported pIC50 value of CNC(=O)c1cc(Cl)cc(C(F)(F)F)c1N[C@@H]1COCC[C@@H]1NC(=O)c1cncc2ccccc12 .
Reply: 6.00 to 7.00

Query: If you can, please state the reported pIC50 value of CNC(=O)c1cc(Cl)cc([N+](=O)[O-])c1N[C@H]1CN(C(=O)c2cncc3cccc(O)c23)CCC1(F)F .
Reply: > 7.00

Query: If you can, please state the reported pIC50 value of O=C(N[C@H]1CCOC1)c1cc(Br)cc(C(F)(F)F)c1N[C@H]1CN(C(=O)c2cncc3cccnc23)CCC1(F)F .
Reply: > 7.00

Query: If you can, please state the reported pIC50 value of O=C(NC1CC(F)(F)C1)c1cc(Br)cc([N+](=O)[O-])c1N1CCC2(CCN(C(=O)c3cncc4ccccc34)C2)C1 (stereo not drawn) .
Reply: > 7.00

---

Biological target: UniProt P0DTD1
pIC50: −log10 of the molar value.
observable: pIC50

Some solved entries appear below for comparison.
compound: O=C(N[C@H]1CCOC1)c1cc(Br)cc(C(F)(F)F)c1N[C@H]1CN(C(=O)c2cncc3ccccc23)CCC1(F)F
observable: pIC50
result: > 7.00
--
compound: COC1CN(C(=O)c2cc(Cl)cc([N+](=O)[O-])c2N[C@H]2CN(C(=O)c3cncc4cccnc34)CCC2(F)F)C1
observable: pIC50
result: > 7.00
--
compound: CNC(=O)c1cc(Br)cc([N+](=O)[O-])c1N[C@@H]1CCCCN(C(=O)c2cnc3ccccc3c2)C1
observable: pIC50
result: 6.00 to 7.00
--
compound: O=C(c1cc(Cl)cc([N+](=O)[O-])c1N[C@H]1CN(C(=O)c2cncc3cccnc23)CCC1(F)F)N1CC(O)C1
observable: pIC50
result: > 7.00
--
compound: Cn1cc(NC(=O)c2cc(Br)cc([N+](=O)[O-])c2N[C@H]2CN(C(=O)c3cncc4ccccc34)CCC2(F)F)cn1
observable: pIC50
result: > 7.00
--
compound: CNC(=O)c1cc(Cl)cc(C(F)(F)F)c1N[C@H]1CN(C(=O)c2cncc3ccccc23)CCC1(F)F
observable: pIC50
result: > 7.00
--
compound: O=C(NC1CC(F)(F)C1)c1cc(Br)cc([N+](=O)[O-])c1N[C@@H]1CCCN(C(=O)c2cncc3ccccc23)C1
observable: pIC50
result: > 7.00
--
compound: CC(C)C(Nc1c(C(=O)NC2CC(F)(F)C2)cc(Br)cc1[N+](=O)[O-])C1CN(C(=O)c2cncc3ccccc23)C1 (stereo not drawn)
observable: pIC50
result: 6.00 to 7.00
--
compound: CC(C)(C)NC(=O)c1cc(Br)cc([N+](=O)[O-])c1N[C@@H]1CCCC[C@@H]1NC(=O)c1cncc2ccccc12
observable: pIC50
result: 6.00 to 7.00
--
compound: O=C(c1cc(Cl)cc([N+](=O)[O-])c1N[C@H]1CN(C(=O)c2cncc3ccccc23)CCC1(F)F)N1CC(F)(F)C1
observable: pIC50
result: > 7.00

Query: If you can, please state the reported pIC50 value of O=C(NCC(F)F)c1cc(Br)cc([N+](=O)[O-])c1N[C@@H]1CCCC[C@@H]1NC(=O)c1cncc2ccccc12 .
Reply: > 7.00
